Values from paper PMC8746705

Biological target: LAT1 (Mus musculus, UniProt Q9Z127)
Sequence (Q9Z127 whole entry): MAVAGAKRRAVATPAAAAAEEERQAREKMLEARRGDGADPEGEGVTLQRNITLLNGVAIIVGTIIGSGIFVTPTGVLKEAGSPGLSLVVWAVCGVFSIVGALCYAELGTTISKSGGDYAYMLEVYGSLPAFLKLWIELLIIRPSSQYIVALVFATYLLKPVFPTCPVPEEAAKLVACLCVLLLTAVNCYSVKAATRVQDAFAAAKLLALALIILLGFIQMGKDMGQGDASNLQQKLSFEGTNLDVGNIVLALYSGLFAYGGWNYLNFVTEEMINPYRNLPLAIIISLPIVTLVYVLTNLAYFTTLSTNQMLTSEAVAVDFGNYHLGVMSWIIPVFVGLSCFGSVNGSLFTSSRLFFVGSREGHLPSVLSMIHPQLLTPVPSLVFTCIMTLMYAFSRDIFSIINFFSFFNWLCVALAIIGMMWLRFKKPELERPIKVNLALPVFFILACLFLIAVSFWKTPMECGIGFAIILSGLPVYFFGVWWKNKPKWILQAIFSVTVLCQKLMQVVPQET
Sequence (P10852 whole entry partner): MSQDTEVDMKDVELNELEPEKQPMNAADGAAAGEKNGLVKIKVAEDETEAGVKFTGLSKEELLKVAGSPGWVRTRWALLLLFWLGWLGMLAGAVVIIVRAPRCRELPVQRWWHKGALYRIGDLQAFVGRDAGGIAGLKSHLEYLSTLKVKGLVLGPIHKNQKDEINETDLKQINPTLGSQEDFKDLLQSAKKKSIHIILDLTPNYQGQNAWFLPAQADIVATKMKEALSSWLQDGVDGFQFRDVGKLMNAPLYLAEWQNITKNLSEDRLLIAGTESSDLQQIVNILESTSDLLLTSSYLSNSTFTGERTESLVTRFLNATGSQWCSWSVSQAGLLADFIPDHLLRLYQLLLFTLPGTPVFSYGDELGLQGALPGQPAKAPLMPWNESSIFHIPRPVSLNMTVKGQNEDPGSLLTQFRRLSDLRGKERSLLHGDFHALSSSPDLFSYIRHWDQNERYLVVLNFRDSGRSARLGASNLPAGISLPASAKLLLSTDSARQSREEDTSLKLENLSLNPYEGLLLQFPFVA
Experiment: Cis-inhibition of radiolabelled LAT1-probe substrate uptake into BV2 cells
Type: cell-based
Settings: probe [3H]-L-Trp, 5 min, mean ± SD, n = 3–4, read-out: IC50 of [3H]-L-Trp uptake
Protocol: After removal of the culture medium, the BV2 cells were carefully washed with pre-warmed HBSS (Hank’s balanced salt solution) containing 125.0 mM choline chloride, 4.8 mM KCl, 1.2 mM MgSO4, 1.2 mM KH2PO4, 1.3 mM CaCl2, 5.6 mM glucose, and 25.0 mM HEPES (pH 7.4 adjusted with 1 M NaOH). Pre-incubation was done with 500 μL of pre-warmed HBSS at 37 °C for 10 min before adding substrates (250 μL in HBSS) for the uptake experiments. […]
Readout Name: IC50 (µM)
Report the figure in µM without appending any unit label.

The following compounds have reported results that may help.
Smi | IC50 (µM)
COc1ccc2cc([C@H](C)C(=O)Nc3cccc(C[C@H](N)C(=O)O)c3)ccc2c1 | 14
C[C@H](C(=O)Nc1cccc(C[C@H](N)C(=O)O)c1)c1ccc(-c2ccccc2)c(F)c1 | 15.9
C[C@H](C(=O)Oc1cccc(C[C@H](N)C(=O)O)c1)c1cccc(C(=O)c2ccccc2)c1 | 38.8

What value of IC50 has been reported for the following compound? `COc1cc(/C=C/C(=O)Oc2cccc(C[C@H](N)C(=O)O)c2)ccc1O` 19.8

----------
Known pIC50 of a selection of compounds
Target: LAT1 (Mus musculus, UniProt Q9Z127)
Assay: Cis-inhibition of radiolabelled LAT1-probe substrate uptake into BV2 cells
Type: cell-based
Details: probe [3H]-L-Kynu, 5 min, mean ± SD, n = 3–4, read-out: IC50 of [3H]-L-Kynu uptake
Formally, pIC50 is defined as -log10 of the concentration c, with c in mol/L.

Compound | pIC50
C[C@H](C(=O)OCc1ccc(C[C@@H](N)C(=O)O)cc1)c1cccc(C(=O)c2ccccc2)c1 | 4.04
COc1ccc2cc([C@H](C)C(=O)Nc3cccc(C[C@H](N)C(=O)O)c3)ccc2c1 | 5.74
CC(C)Cc1ccc([C@H](C)C(=O)Oc2cccc(C[C@H](N)C(=O)O)c2)cc1 | 5.01
C[C@H](C(=O)Oc1cccc(C[C@H](N)C(=O)O)c1)c1cccc(C(=O)c2ccccc2)c1 | 4.45

Consider now this further compound.
What value of pIC50 has been reported for the following compound? CC(C(=O)Nc1ccc(CC(N)C(=O)O)cc1)c1cccc(C(=O)c2ccccc2)c1 (centres unmarked) 4.92

----------
Test system: immortalized mouse microglia (BV2)
Assay: Time-dependent cellular uptake of compounds into BV2 cells (LC-MS/MS)
Format: cell-based
Conditions: 100 µM compound, 1–60 min, mean ± SD, n = 3
Readout Name: Max. cellular uptake

The following molecules have reported results that may help.
Smi | Readout Name | Test Value
CC(C)Cc1ccc([C@H](C)C(=O)Nc2cccc(C[C@H](N)C(=O)O)c2)cc1 | Max. cellular uptake | 4.14 ± 0.31 nmol/mg of protein
C[C@H](C(=O)Oc1cccc(C[C@H](N)C(=O)O)c1)c1cccc(C(=O)c2ccccc2)c1 | Max. cellular uptake | 4.17 ± 0.19 nmol/mg of protein
C[C@H](C(=O)Oc1cccc(C[C@H](N)C(=O)O)c1)c1ccc(-c2ccccc2)c(F)c1 | Max. cellular uptake | 36.12 ± 4.17 nmol/mg of protein
N[C@@H](Cc1cccc(NC(=O)c2ccccc2O)c1)C(=O)O | Max. cellular uptake | 8.05 ± 0.40 nmol/mg of protein
C[C@H](C(=O)Nc1cccc(C[C@H](N)C(=O)O)c1)c1ccc(-c2ccccc2)c(F)c1 | Max. cellular uptake | 101.6 ± 86.1 nmol/mg of protein

Consider now this further molecule.
Report Max. cellular uptake for `COc1ccc2cc([C@H](C)C(=O)Oc3cccc(C[C@H](N)C(=O)O)c3)ccc2c1` tested on immortalized mouse microglia (BV2). 29.09 ± 2.84 nmol/mg of protein
